- Tested on: SF-295 CNS
- run_description: NCI-60 one-dose screen, 48 h
- condition_info: 10 µM unless noted
- Experimental: Cells are grown in 96 well plates and exposed to the test compound for 48 hours. Compounds are tested at a single concentration, which is 10^-5 M for most compounds. The reported endpoint is percent growth (GI% or GIPRCNT), where numbers from 0 - 100% represent growth inhibition, and numbers from -100% - 0 represent cell death. For example, a value of 40 represents 60% growth inhibition. A value of 0 means no net growth occurred over the course of the experiment. […]
Compounds without any hit were thinned out: in the full panel of roughly 83,000, 20% have a hit. Active and inactive are the calls of the source. Rule for the calls: active = growth percent below 10; inactive = the rest.
Would you mind answering with one of these outcomes? true (1) (active), false (0) (inactive)

// below: answered molecules
C[N+](C)(C)c1ncnc2[n-]cnc12
false (0)
COc1ccc2c3ccnc(C(F)(F)F)c3n(CCCCN)c2c1
false (0)
C#C[C@]1(O)CC[C@H]2[C@@H]3CC=C4c5nc(Nc6ccc(OC)cc6OC)sc5CC[C@]4(C)[C@H]3CC[C@@]21C
true (1)
C#CC(OC(=O)N(C)C)(c1ccccc1)c1ccc(F)cc1 (stereo unspecified)
false (0)
CC1(C)C(=NO)C(C)(C)C1=NO
false (0)

Query string: So what was the verdict on Cc1cc(C)c(O)c(CNCCCNCc2cc(C)cc(C)c2O)c1 in this test?
Result string: false (0)

Query string: For N#CC1C(=O)NC(c2ccccc2[N+](=O)[O-])c2sc3c(F)cccc3c21 (stereo unspecified) , what call appears in the results of this test?
Result string: false (0)

Query string: Identify the outcome logged in this assay for the molecule shown: COc1ccc(C(=O)/C=C/c2ccccn2)c(O)c1
Result string: false (0)

Query string: In this assay, the call recorded for C=C(C)[C@@H]1CC[C@]2(C(N)=O)CC[C@]3(C)[C@H](CC[C@@H]4[C@@]5(C)C/C(=C/c6cccnc6)[C@H](O)C(C)(C)[C@@H]5CC[C@]43C)[C@@H]12 was what?
Result string: false (0)

Query string: How was O=C(Nc1ccc(Oc2ccc(F)cc2)c(Cl)c1)c1cnccn1 classified in this test?
Result string: false (0)

Query string: Fill in: this test's call for COc1ccc(-c2cc(-c3ccc(Cl)cc3)nc(SCCCCCCC(=O)NO)n2)cc1 is ___
Result string: false (0)

Query string: Which outcome was assigned to CCCCC(CCCCCC(CCCC)C1NC(C)Cc2cc(OC)c(OC)cc21)C1NC(C)Cc2cc(OC)c(OC)cc21 (stereo unspecified) in this test?
Result string: true (1)

Query string: Outcome logged for CCOC(=O)c1nn(C2CCCCO2)c2ccc(NS(=O)(=O)c3ccc(C)cc3)cc12 (stereo unspecified) in this assay:
Result string: false (0)

Query string: Check the results log: what was the call for O=C(CCCSc1nc(-c2ccccc2)cc(-c2ccccc2)n1)NO ?
Result string: true (1)

###

- Tested on: SR leukemia
- run_description: NCI-60 one-dose screen, 48 h
- condition_info: 10 µM unless noted
- Procedure: Growth inhibition of the SR human tumor cell line is measured as a screen for anti-cancer activity. Cells are grown in 96 well plates and exposed to the test compound for 48 hours. Compounds are tested at a single concentration, which is 10^-5 M for most compounds. The reported endpoint is percent growth (GI% or GIPRCNT), where numbers from 0 - 100% represent growth inhibition, and numbers from -100% - 0 represent cell death. For example, a value of 40 represents 60% growth inhibition. […]
Compounds without any hit were thinned out: in the full panel of roughly 83,000, 20% have a hit. Active and inactive are the calls of the source. The calls were made as follows: active = growth percent below 10; inactive = the rest.
Your response should consist of one outcome taken from y for active, n for inactive

Example entries and their recorded answers appear below.
CCCCN(CC)CC(CC)Nc1cc(OC)cc2cccnc12 (stereo not given)
n
c1ccc(-c2nc(N3CCCNCC3)c3nc(-c4ccccc4)oc3n2)cc1
y
C1=C[C@H]2O[C@@H]1c1ccc3[nH]ccc3c12
n

Query string: State the result this test recorded for C[C@]12CCc3nc(Nc4ccccc4)sc3C1=CC[C@@H]1[C@@H]2CC[C@]2(C)/C(=N/NC(N)=S)CC[C@@H]12 .
Result string: n

Query string: Dear colleague, could you share the recorded outcome for c1nc(N2CCOCC2)c2[nH]ccc2n1 when you have a moment?
Result string: n

Query string: What was the test verdict on O=C1C(Cl)=C(Nc2ccc3cn[nH]c3c2)C(=O)c2ccccc21 ?
Result string: y

Query string: Called result for COc1ccc(NCc2cn(-c3ccc(C(=O)O)cc3)nc2-c2ccc(C(=O)O)cc2)cc1C(F)(F)F
Result string: n

Query string: In this assay, the call recorded for COc1cc(-c2nc(SCCC(C)C)nc(Nc3ccccc3)c2C#N)cc(OC)c1OC was what?
Result string: n

Query string: # outcome recorded in this test, key = CCN(CC)CCS(=O)(=O)CCNc1ccnc2cc(Cl)ccc12
Result string: y

Query string: What is the recorded call for this compound in the test? Cc1ncc(C(=O)Nc2ccc(CN3CCN(C)CC3)c(C(F)(F)F)c2)cc1C#Cc1c(N)ncc2ccc(C#N)cc12
Result string: n
